B1: HDV Ribozyme (parent)
chain: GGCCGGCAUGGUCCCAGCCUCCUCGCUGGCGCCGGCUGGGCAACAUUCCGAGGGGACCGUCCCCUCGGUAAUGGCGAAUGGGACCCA

- Variants of: B1
- assay-summary: self-cleavage, relative activity (ratio to wild type); higher = more cleavage; co-transcriptional
test-readout: self-cleavage
Give your answer as a number; write no unit.

Use these answered entries as a reference point.
Please report the recorded self-cleavage for GGCCGGCAUAGUCCCAGCCUCCUCGCUGGCGCCGGCUGGGCAACAUUCCGAGGGGACCGUCCCCUCGGUAAUGGCGAAUGGGACGCA . 0.892

Please report the recorded self-cleavage for GGCCGGCAUGGUCCCAGCCUCCUCGCUGGCGCCGGCUGGGCAACAUUCCGAGGGGACCGUCCCCUCGAUAAUGGCGAACGGGACCCA . 0.233

Next:
Please report the recorded self-cleavage for GGCCGGCAUGGUACCAGCCUCCUCGCUGGCGCCGGCUGGGCAACAUUCCGAGGGGACCGUCCCCUCGGUAAUGGCGAAUGGAACCCA . 0.264

Please report the recorded self-cleavage for GGCCGGCAUGGUCCCAGCCUCCUCGCUGGCGCCGGCUGGGAAACAUUUCGAGGGGACCGUCCCCUCGGUAAUGGCGAAUGGGACCCA . 1.02

Please report the recorded self-cleavage for GGCCGGCAUGGUCCCAGUCUCCUCGGUGGCGCCGGCUGGGCAACAUUCCGAGGGGACCGUCCCCUCGGUAAUGGCGAAUGGGACCCA . 0.869

Please report the recorded self-cleavage for GGCCGGCAUGGUCCCACCCUCCUCGCUGGCGCCGGCUGGGCGACAUUCCGAGGGGACCGUCCCCUCGGUAAUGGCGAAUGGGACCCA . 0

Please report the recorded self-cleavage for GGCCGGCAUGGUCCCAGCCUCCUCGCUGGCGCCGGCUGGGCAACAUUCCGAGGGGACCGUCCCCUCUGUAAUGGCGAAUGGGACCUA . 0.933

Please report the recorded self-cleavage for GGCCGGCAUGGUCCCAGCCUCCUCGCUGGCGCCGGCUGGGCAACAUGCCGAGGGGACCGUCCCCUCGGUAAUGGCGAAUCGGACCCA . 0.192

Please report the recorded self-cleavage for GGCCGGCAUGGUCCCAGCCUCCUCGCUGGCGCCGGCUGGGCAACAUUCCGAGGGGACCGUCCCCUGGGUCAUGGCGAAUGGGACCCA . 0.758

Please report the recorded self-cleavage for GGCCGGCAUGGUCCCAGCCUCCUCGCUGGCGUCGGCUGGGCAACAUUCCGAGGGGACCGUCCUCUCGGUAAUGGCGAAUGGGACCCA . 0.817

Please report the recorded self-cleavage for GGCCGGCAUGGUCCCAGCCUCCUCGCUGGCGCCGGCUGGGCAACAUUCCCAGGGGACCGUCCCCUCGGUAAUGGAGAAUGGGACCCA . 0.242
